In this section we review reported potency estimated from few doses values for a set of compounds.
- Target or test system: Q6ZSR9 (human)
- Sequence (Q6ZSR9 whole entry, looked up): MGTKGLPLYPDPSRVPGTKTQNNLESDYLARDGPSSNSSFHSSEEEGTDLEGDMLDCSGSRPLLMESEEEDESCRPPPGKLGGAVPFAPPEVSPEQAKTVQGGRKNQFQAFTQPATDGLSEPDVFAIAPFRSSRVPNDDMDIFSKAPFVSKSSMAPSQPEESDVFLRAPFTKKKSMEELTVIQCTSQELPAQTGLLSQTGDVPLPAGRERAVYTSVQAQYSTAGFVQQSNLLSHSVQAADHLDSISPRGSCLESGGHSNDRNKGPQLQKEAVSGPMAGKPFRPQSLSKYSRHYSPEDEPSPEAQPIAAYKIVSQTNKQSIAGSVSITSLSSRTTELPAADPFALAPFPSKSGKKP
- Design: species or system MV4-11 + K-562 + COLO205 + SK-N-BE2 + OVCAR-8
- Condition context: read-out: apparent Kd; compound concentrations:100 nM and 1000 nM (sheet 'Samples'); n = 1
Kindly provide the numeric value in nM only, without the unit symbol.

compound=CNCc1ccc(-c2cc(-c3nc(-c4ccc(S(=O)(=O)C(C)C)cc4)cnc3N)on2)cc1 unit_info=nM recorded_value=1240
compound=CS(=O)(=O)CCn1c(=O)c(Oc2ccc(F)cc2F)cc2cnc(NC3CCOCC3)nc21 unit_info=nM recorded_value=932
compound="Cc1occc1-c1nc(N)c(OC[C@@H](N)Cc2c[nH]c3ccccc23)cc1-c1cc2c(C)n[nH]c2cn1 [GSK1660450B]" unit_info=nM recorded_value=1670
compound="Nc1nc(Nc2ccccc2)cc(-c2ccc3c(N)n[nH]c3c2)n1 [GSK2225749A]" unit_info=nM recorded_value=125
compound=NS(=O)(=O)c1ccc(N/N=C2\C(=O)Nc3ccc(-c4cnco4)cc32)cc1 unit_info=nM recorded_value=782

**Query** Tell me reported potency estimated from few doses for O=C(O)C(F)(F)F.O=c1[nH]ccc2nc(N[C@@H]3CCNC3)nc(Nc3cc(Cl)cc(Cl)c3)c12 [GSK2188764A] , tested with Q6ZSR9 (human).
**Result** 151

**Query** Tell me reported potency estimated from few doses for CNC(=O)c1ccccc1Nc1nc(Nc2ccc(N3CCOCC3)cc2)ncc1Cl.Cl [GSK1576028A] , tested with Q6ZSR9 (human).
**Result** 116
